- test-name: Cytotoxicity study, CellTitre-Blue viability assay
- cond: cat, Crandell Rees Feline Kidney (CRFK) cells, Cell Viability CC50, CRFK cells, 48 h, CellTitre-Blue
test-readout: CC50 at 48 h

Qu. Item COc1ccc2c(c1)[C@@H]1C[C@]1(C(=O)N1[C@@H]3CC[C@H]1CN(C)C3)Cn1c-2c(C2CCCCC2)c2ccc(C(=O)NS(=O)(=O)N(C)C)cc21 : provide CC50 at 48 h
Ans. < 30 µM

Qu. Item NC(=O)c1nc(F)c[nH]c1=O : provide CC50 at 48 h
Ans. > 100 µM

Qu. Item CC(=O)Oc1ccccc1C(=O)Nc1ncc([N+](=O)[O-])s1 [Nitazoxanide, nitazoxanide] : provide CC50 at 48 h
Ans. 12.7 µM
